Where these numbers come from: patent US8674100B2

Tested on: mouse bone-marrow derived macrophages
Conditions: read-out: mCSF driven proliferation BMDM (Mouse) - IC-50; BrDU incorporation, CSF-1 stimulated, 30 hrs culture; hydrochloride
Counter-ions that a name gives are not always drawn.
Attribute measured: IC50
# answer = value followed by unit

So for N#Cc1cnc(C(=O)Nc2ccc(CN3CCOCC3)cc2C2=CCCCC2)[nH]1 [Example 44, hydrochloride] , the logged IC50 turned out to be 14.6 nM

###

Entries with their measured pIC50, system CSF-1R (c-fms) (Homo sapiens (Human), UniProt P07333):
pIC50: −log10 of the molar value. Where a name gives a salt, the structure may show the parent alone.

Some solved entries appear below for comparison.
[
  {
    "Molecule": "O=C(Nc1ccc(CCN2CCOCC2)cc1C1=CCCCC1)c1nc(Cl)c(Cl)[nH]1 [Example 38, trifluoroacetic acid salt]",
    "pIC50": "< 7.22"
  },
  {
    "Molecule": "CC1(C)CC=C(c2cc(C(C)(C)CN3C[C@@H]4OC(C)(C)O[C@@H]4C3)ccc2NC(=O)c2nc(C#N)c[nH]2)CC1",
    "pIC50": "< 7.00"
  },
  {
    "Molecule": "Cc1nc(C(=O)Nc2ccc(CCN3CCOCC3)cc2C2=CCCCC2)[nH]c1C#N [Example 33, hydrochloride]",
    "pIC50": "< 7.22"
  },
  {
    "Molecule": "C[S+]([O-])c1ncc(C(=O)Nc2ccc(CCN3CCOCC3)cc2C2=CCCCC2)[nH]1 (stereo not drawn) [Example 35, trifluoroacetic acid salt]",
    "pIC50": "< 6.30"
  },
  {
    "Molecule": "CS(=O)(=O)c1ncc(C(=O)Nc2ccc(CCN3CCOCC3)cc2C2=CCCCC2)[nH]1 [Example 36, hydrochloride]",
    "pIC50": "< 6.30"
  }
]

Okay, now this molecule:
Value (pIC50, CSF-1R (c-fms) (Homo sapiens (Human), UniProt P07333)) for record O=C(Nc1ccc(CCN2CCOCC2)cc1C1=CCCCC1)c1nc2ccccc2[nH]1 [Example 39, trifluoroacetic acid salt] = < 7.22
